Target: receptor interacting protein kinase 1 (GST-hRIPK1 (8-327)) (Homo sapiens)
Construct: GST-hRIPK1 (8-327) enzyme was generated by Proteros GmbH by Baculovirus expression system
Sequence (Q13546 8-327): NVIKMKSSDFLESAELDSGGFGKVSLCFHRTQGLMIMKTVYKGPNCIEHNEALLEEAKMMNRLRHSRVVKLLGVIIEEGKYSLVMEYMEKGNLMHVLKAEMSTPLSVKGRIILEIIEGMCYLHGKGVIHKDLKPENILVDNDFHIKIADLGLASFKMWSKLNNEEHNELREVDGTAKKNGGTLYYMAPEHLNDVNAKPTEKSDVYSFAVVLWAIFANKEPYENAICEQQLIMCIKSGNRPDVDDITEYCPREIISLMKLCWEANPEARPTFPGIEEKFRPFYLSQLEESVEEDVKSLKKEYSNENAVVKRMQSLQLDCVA
Test: Fluorescent Polarization Binding (FP Binding) assay
Settings: 10 nM GST-hRIPK1 (8-327), 5 nM fluorescent-labeled ligand, 30 min at RT
MEASUREMENT_LABEL: IC50

// worked examples, IC50 included
In [3]: df
Out[3]:
                                   compound                                       tgt         obs_value
0   CN1CC(C)(C(=O)N2OCC[C@H]2c2ccc(F)cc2)C1  receptor interacting protein kinase 1 (GST-hRIPK1 (8-327)) (Homo sapiens)        > 10000 nM
1        CC(C)(C)C(=O)N1OCC[C@@H]1c1ccccc1F  receptor interacting protein kinase 1 (GST-hRIPK1 (8-327)) (Homo sapiens)         < 1000 nM
2  CC(C)(C)C(=O)N1OCCC1c1cccnc1 (centres unmarked)  receptor interacting protein kinase 1 (GST-hRIPK1 (8-327)) (Homo sapiens)         < 1000 nM
3  [2H]C1([2H])C[C@@H](c2ccc(C#N)cc2)N(C(=O)C(C)(C)C)O1 (single isomer, unassigned)  receptor interacting protein kinase 1 (GST-hRIPK1 (8-327)) (Homo sapiens)         < 1000 nM
4  CC(C)(C)OC(=O)N1CC(C)(C(=O)N2OCC[C@H]2c2ccc(F)cc2)C1  receptor interacting protein kinase 1 (GST-hRIPK1 (8-327)) (Homo sapiens)  1000 to 10000 nM
5  [2H]C([2H])([2H])C(C(=O)N1OCC[C@H]1c1ccc(F)cc1)(C([2H])([2H])[2H])C([2H])([2H])[2H]  receptor interacting protein kinase 1 (GST-hRIPK1 (8-327)) (Homo sapiens)         < 1000 nM

Query: Write down IC50 measured for item CC(C(=O)N1OCC[C@H]1c1ccc(F)nc1)C1CC1 (single isomer, unassigned) [Compound 116]
Response: < 1000 nM

Query: Write down IC50 measured for item CC(C)(C)C(=O)N1OCC[C@H]1c1ccc(Cl)cn1
Response: < 1000 nM

###

Target: receptor interacting protein kinase 1 (GST-hRIPK1 (8-327)) (Homo sapiens)
Construct: GST-hRIPK1 (8-327) enzyme was generated by Proteros GmbH by Baculovirus expression system
Test: ADP-Glo luminescence assay, RIPK1 autophosphorylation
Format: biochemical
Conditions: 1.5 μg/mL GST-hRIPK1 (8-327), 50 μM ATP, 3 hours at room temperature
pIC50: −log10 of the molar value.
Listed here: items and their measured pIC50.

// worked examples, pIC50 included
>>> df
                                   compound  obs_value
0  Cc1ncc([C@@H]2CCON2C(=O)C(C)(C)C)cc1F (single isomer, unassigned)     > 6.00
1          O=C(N1OCC[C@H]1c1ccccc1)C1(O)CC1     < 5.00
2        CC(C)(C#N)C(=O)N1OCC[C@H]1c1ccccc1     > 6.00
3         CC1(C(=O)N2OCC[C@H]2c2ccccc2)COC1     > 6.00

// below: pIC50 requested for another compound
Query: Write down pIC50 measured for item N#CC1(C(=O)N2OCC[C@H]2c2ccccc2)CCC1
Response: > 6.00

Data origin: patent US10709692B2
